System: Klebsiella pneumoniae
Conditions: Concentration 20 uM; ASSAY_TEST Inhibition of Bacterial Growth; detection method Absorption (OD600); MEDIA CAMHB; plate type 384well; NBS; CORNING #3640; time 18 hr
Description: Antibacterial activity against Klebsiella pneumoniae MDR ATCC 70063 (CO-ADD:GN_003); MIC in CAMBH media using NBS plates, by OD(600)
Measured potencies and affinities stand elsewhere.
assayReadout: Inhibition (%)
Answers are plain numbers, in %.

Solved cases (2 shown):
{"molecule": "CSc1nc(O)nnc1Sc1ccccc1", "Inhibition, %": 7.57}
{"molecule": "O=[N+]([O-])c1ccc(Sc2ncccn2)c([N+](=O)[O-])c1", "Inhibition, %": 8.38}

Go through the list and state Inhibition for each entry.
1. CC1=NN(c2ccccc2)C(=O)C1/N=N/c1ccc(S(N)(=O)=O)cc1 (stereo not given)
2. COC(=O)c1cc(C)c(C)cc1NC1OC(CO)C(O)C1O (stereo not given)

OUT:
5.84
12.31

Go through the list and state Inhibition for each entry.
1. COc1cc(/N=N/c2cccc(S(N)(=O)=O)c2)c2ccccc2c1N
2. CSc1nnc(-c2cccs2)[nH]1
3. O=C1NC(=S)S/C1=C\c1ccccc1C(=O)O
4. CN(C(=O)c1ccncc1)c1ccccc1
5. Cc1ccc(C(=N)Nc2ccccc2)cc1

OUT:
14.2
0.04
11.85
7.45
18.31

Go through the list and state Inhibition for each entry.
1. Cc1nc2ccnn2c(O)c1CCc1ccccc1
2. O=c1cc(-c2ccc(O)cc2)oc2c(O)c(O)c(O)c(O)c12

OUT:
1. 10.44
2. 11.62

Go through the list and state Inhibition for each entry.
1. COc1cccc2nc3cc(C)c(C)cc3nc12
2. O=[N+]([O-])C1C(c2ccccc2)C12c1ccccc1-c1ccccc12 (stereo not given)
3. O=C1C(Cl)=C(O)C2(Cl)C(Cl)=C(Cl)C12Cl (stereo not given)
4. C[C@H](CCC(=O)O)[C@H]1CC[C@@]2(C)[C@@H]3C(=O)C[C@H]4C(C)(C)[C@@H](O)CC[C@]4(C)[C@H]3C(=O)C[C@]12C
5. CCOC(=O)C(=O)Cc1cccnn1

OUT:
1. 1.37
2. -4
3. 11.98
4. 11.41
5. 15.16

Go through the list and state Inhibition for each entry.
1. CC(C)(C)C(=O)/C=C/c1ccc(Oc2ccccc2)cc1
2. CCCCSc1nc(O)cc(C(=O)O)n1
3. COc1ccc(C(=O)Oc2cccnc2O)cc1
4. Cc1ccc(NC(=O)Nc2ccccc2C(N)=O)cc1
5. COc1ccc2nc(-c3ccc(Cl)cc3)cc(C(=O)O)c2c1

OUT:
[20.89, 7.02, 12.02, 4.47, 11.49]

Go through the list and state Inhibition for each entry.
1. COc1ccccc1NC(=O)c1cc2ccccc2cc1O
2. Sc1nc2ccccc2n2cccc12
3. CCC12CCCN3CCc4c(n(c5ccccc45)C(O)(C(=O)OC)C1)C32 (stereo not given)
4. C=CCNC(S)=NCC

OUT:
1. 12.44
2. 3.32
3. 11.45
4. 13

* * *

Tested on: Cryptococcus neoformans
Conditions: Concentration 20 uM; ASSAY_TEST Inhibition of Fungal Growth; detection method Resazurin; Absorption (OD600-OD570); plate type 384well; NBS; CORNING #3640
Description: Antifungal activity against Cryptococcus neoformans H99 ATCC 208821 (CO-ADD:FG_002); MIC in YNB media using NBS plates, by Resazurin OD(600-570)
Measured potencies and affinities stand elsewhere.
assayReadout: Inhibition (%)
Numbers only, in %.

{"compound": "Cc1nc(Nc2ccc(F)cc2)nc(Nc2ccc(F)cc2)c1[N+](=O)[O-]", "Inhibition [%]": 0.25}
{"compound": "O=C(CN1CCOCC1)N1CCOCC1", "Inhibition [%]": -8.59}
{"compound": "COC(=O)CC1(C(=O)OC)Nc2cc(Cl)c(Cl)cc2S(=O)(=O)N1O (stereo unspecified)", "Inhibition [%]": 3.59}
{"compound": "COC(=O)c1ccc(Cn2cnc3c(Cl)ncnc32)cc1", "Inhibition [%]": 15.29}
{"compound": "O=C(Cn1nnc(N2CCCCC2)n1)N/N=C/c1ccccc1O", "Inhibition [%]": -9.12}

Go through the list and state Inhibition for each entry.
1. CCOC(=O)C(=O)Cc1cccnn1
2. N=C(NOC(=O)c1ccccc1)C(Cc1ccccc1)C(=O)NOC(=O)c1ccccc1 (stereo unspecified)
3. Nc1ncncc1-c1ccc2ccccc2c1
4. CCN1CCCCC(=N\O)/C(=N/O)CCCC1
5. O=c1[nH]cc(Cl)cc1Cl

OUT:
1. -1.54
2. -11.11
3. -7.84
4. -7.99
5. 0.46

Go through the list and state Inhibition for each entry.
1. COc1ccc(NC2=CC(=S)NC(C)(C)C2)cc1
2. Cc1cccc(N2CCN(CC(O)COc3ccccc3Cl)CC2)c1 (stereo unspecified)
3. C=CCOc1c(CCC)cc(CCC)cc1C(N)=O
4. CCC(C)NC(=O)CC(C)C (stereo unspecified)
5. CCCCCCCCCCCCC(NC(C)=O)(C(=O)OCC)C(=O)OCC
6. COC(=O)c1cncc(C)c1

OUT:
1. -8.08
2. -18.69
3. -4.27
4. -12.52
5. -2.7
6. -1.27

Go through the list and state Inhibition for each entry.
1. NC(=O)c1ncn2c(=O)n(CCCl)nnc12 [MITOZOLOMIDE]
2. C=CCN1CCN(c2ccncc2S(=O)(=O)N2CCN(C)CC2)CC1

OUT:
1. -10.87
2. -11.5
